Tested on: COLO 205
Assay: Growth inhibition of human COLO205 cells after 48 hrs by sulforhodamine B assay
Type: functional
Conditions: COLO 205, 48 h
property.label: LC50 (concentration killing 50% of cells) (µM)
Please state the figure in µM; there is no need to write the unit.

[ask] # LC50 (concentration killing 50% of cells) lookup, item COc1cc(-c2nn(-c3cccc(NC(=O)Nc4cccc(C(F)(F)F)c4)c3)cc2-c2ccncc2)ccc1Cl
[reply] 3.43

[ask] # LC50 (concentration killing 50% of cells) lookup, item COc1cc(-c2nn(-c3cccc(NC(=O)c4cccc(C(F)(F)F)c4)c3)cc2-c2ccncc2)ccc1Cl
[reply] 24.8

[ask] # LC50 (concentration killing 50% of cells) lookup, item COc1cc(-c2nn(-c3cccc(NC(=O)Nc4ccc(Cl)c(Cl)c4)c3)cc2-c2ccncc2)ccc1Cl
[reply] 3.14

[ask] # LC50 (concentration killing 50% of cells) lookup, item COc1cc(-c2nn(-c3cccc(NC(=O)Nc4ccc(Cl)c(C(F)(F)F)c4)c3)cc2-c2ccncc2)ccc1Cl
[reply] 3.48

[ask] # LC50 (concentration killing 50% of cells) lookup, item O=C(Nc1cccc(-n2cc(-c3ccncc3)c(-c3ccc(Cl)c(O)c3)n2)c1)Nc1cc(C(F)(F)F)cc(C(F)(F)F)c1
[reply] 2.92
